species: Rattus norvegicus; assay: DrugMatrix - Regimen: Daily Repeat; assay type: toxicity, organism-based, Sprague-Dawley; parameters: regimen Daily Repeat, gender Male, age 6-8 weeks; conditions: in vivo, po, 0 mg/kg, 120 h, tissue Plasma, route oral GAVAGE, dose level Control, time 5 day, […]

compound: CO[C@H]1/C=C/O[C@@]2(C)Oc3c(C)c(O)c4c(O)c(c(/C=N/N5CCN(C6CCCC6)CC5)c(O)c4c3C2=O)NC(=O)/C(C)=C\C=C\[C@H](C)[C@H](O)[C@@H](C)[C@@H](O)[C@@H](C)[C@H](OC(C)=O)[C@@H]1C
value unit: u/L
LIPASE: 10.83
//
compound: COc1cc(N)c(Cl)cc1C(=O)NC1CCN(CCCOc2ccc(F)cc2)CC1OC (centres undefined) [CISAPRIDE]
value unit: u/L
LIPASE: 10
//
compound: CC(C)(C)NC(=O)[C@H]1CC[C@H]2[C@@H]3CC[C@H]4NC(=O)C=C[C@]4(C)[C@H]3CC[C@]12C [FINASTERIDE]
value unit: u/L
LIPASE: 11.67
//
compound: Clc1ccc(COC(Cn2ccnc2)c2ccc(Cl)cc2Cl)cc1 (centres undefined)
value unit: u/L
LIPASE: 11.33

----------
species on record: Rattus norvegicus; experiment: DrugMatrix - Regimen: Daily Repeat; assay type: toxicity, organism-based, Sprague-Dawley; set-up: regimen Daily Repeat, gender Male, age 6-8 weeks; settings: in vivo, po, […], 120 h, tissue Blood, route oral GAVAGE, dose 7.5 mg/Kg, dose level High, time 5 day, vehicle 100 % SALINE
experimental endpoint: ABSOLUTE BASOPHIL (cells/µL)

molecular string: Nc1ncnc2c1ncn2[C@@H]1O[C@H](CO)[C@@H](O)[C@H]1F
quantitative readout: 86.7

----------
Reported ALBUMIN values follow for various compounds
species: Rattus norvegicus; assay: DrugMatrix - Regimen: Daily Repeat; format: toxicity, organism-based, Sprague-Dawley; parameters: regimen Daily Repeat, gender Male, age 6-8 weeks; settings: in vivo, po, 0 mg/kg, 72 h, tissue Plasma, route oral GAVAGE, dose level Control, time 3 day, vehicle .5 % CMC

compound: CN(C)[C@@H]1C(O)=C(C(N)=O)C(=O)[C@@]2(O)C(O)=C3C(=O)c4c(O)ccc(Cl)c4[C@@](C)(O)[C@H]3C[C@@H]12
ALBUMIN / G/DL: 4.22
//
compound: CN(C/C=C/C#CC(C)(C)C)Cc1cccc2ccccc12
ALBUMIN / G/DL: 3.57
//
compound: Cn1c(=O)c2c(ncn2CC(O)CO)n(C)c1=O (centres undefined)
ALBUMIN / G/DL: 4.22
//
compound: COc1ccc(C2C(=O)c3ccccc3C2=O)cc1
ALBUMIN / G/DL: 3.88
//
compound: O=C1CN=C(c2ccccc2Cl)c2cc([N+](=O)[O-])ccc2N1
ALBUMIN / G/DL: 4.15
//
compound: NC1CCN(c2nc3c(cc2F)c(=O)c(C(=O)O)cn3-c2ccc(F)cc2F)C1 (centres undefined)
ALBUMIN / G/DL: 3.57
//
compound: COC1=C(OC)C(=O)C(CCCCCCCCCCO)=C(C)C1=O
ALBUMIN / G/DL: 4.15
//
compound: NCCCC(O)(P(=O)(O)O)P(=O)(O)O
ALBUMIN / G/DL: 3.88
//
compound: CN/C(=N/CCSCc1nc[nH]c1C)NC#N
ALBUMIN / G/DL: 4.15
